System: A549/ATCC NSCLC
Assay: NCI-60 one-dose screen, 48 h
Details: 10 µM unless noted
Procedure: Growth inhibition of the A549/ATCC human Non-Small Cell Lung tumor cell line is measured as a screen for anti-cancer activity. Cells are grown in 96 well plates and exposed to the test compound for 48 hours. Compounds are tested at a single concentration, which is 10^-5 M for most compounds. The reported endpoint is percent growth (GI% or GIPRCNT), where numbers from 0 - 100% represent growth inhibition, and numbers from -100% - 0 represent cell death. […]
This is part of a sample that, as a whole, favours compounds with a hit. Of some 83,000 tested, about 20% had one in any assay. Calls of active or inactive are those of the source. How the source made its calls: active means growth percent below 10; inactive means the rest.
Possible outcomes: active, inactive

N#Cc1c(-c2ccc(F)cc2)nc(SCc2ccc(F)cc2)nc1N1CCNCC1	active
Cc1cc(C(NC(=O)C2CC3(CC(Nc4cccc5c4C(=O)N(C4CCC(=O)NC4=O)C5=O)C3)C2)c2ccc3c(c2)OC(F)(F)O3)c(O)c2ncccc12 (configuration not stated)	active
O=C1Nc2ccc(F)cc2/C1=C/C(=O)c1cc2ccccc2oc1=O	inactive
CCCn1c(NC(=O)c2cccc(C(N)=O)c2)nc2ccc(CN3CCCCC3)cc21	inactive
COc1cc(CNC(=O)C[C@H](C)CCC=C(C)C)ccc1OCc1cn(-c2ccccc2Cl)nn1	inactive
O=C(Nc1ccc(F)cc1)Nc1nc2ccc([N+](=O)[O-])cc2s1	active
CCCCCCCCc1cccc(CC(=O)Nc2ccc(C)cc2C(=O)O)c1	inactive
NNc1ncnc2sc3c(c12)CCN(Cc1ccccc1)C3	inactive
CCCCNC(=S)Nc1ccc(OCc2nc3ccc(Cl)cc3[nH]2)cc1	inactive
C/C(=N\Nc1ccc(S(N)(=O)=O)cc1)c1cnn(-c2cc(=O)[nH]c3ccc(Br)cc23)c1C	inactive
COc1cc(/C=C/C(=O)c2cnn(-c3cc(=O)[nH]c4ccc(C)cc34)c2C)cc(OC)c1OC	active
COc1ccc(N=Nc2c(N)nn3c(-c4ccc(OC)c(OC)c4)ccnc23)cc1	inactive
COc1ccc(NC(=O)Cn2c(/C=C/c3ccc([N+](=O)[O-])cc3)nc3ccccc3c2=O)cc1	inactive
O=S(=O)(c1nc(-c2ccc(Br)cc2)oc1-c1ccc(Cl)cc1)N1CCCC(O)C1 (configuration not stated)	inactive
O=c1[nH]c2ccccc2cc1CSc1ccccc1Nc1nccc(-c2ccc3c(c2)OCO3)n1	inactive
CN1CCc2c(sc3ncnc(N/N=C/c4cccc(Cl)c4Cl)c23)C1	active
O=C(CSc1nnc(-c2ccc(-c3nc4ccc(Cl)cc4[nH]3)cc2)o1)Nc1ccccc1	active
CCC(=O)c1c2c(c3ccc4c5ccccc5ccc4n13)C(=O)c1ccccc1C2=O	inactive
Cc1cc(=O)oc2cc(OCC(O)CNN3C(=O)c4cccc5c(N6CCN(C)CC6)ccc(c45)C3=O)ccc12 (configuration not stated)	inactive
Cc1ccc(C(=O)Nc2cc(-n3ccnc3)cc(C(F)(F)F)c2)cc1-n1cc(-c2cnc3cccnn23)nn1	inactive
O=C1Nc2ccccc2/C1=C\c1ccc(OCC(=O)c2ccc(Br)cc2)cc1	inactive
COc1ccccc1NC(=O)c1ccc(NC(=O)CCl)s1	active
N#C/C(=C/c1ccc(Cl)cc1)c1nnc(NC(=O)c2ccc(-n3c(=O)[nH]c4ccccc4c3=O)cc2)s1	inactive
C/C(=N\Nc1ccc(C(=O)O)cc1)c1cnn(-c2cc(=O)[nH]c3ccc(C)cc23)c1C	inactive
COc1ccc(C(=O)/C=C/c2ccc3c(c2)OCCO3)cc1S(N)(=O)=O	inactive
CC1=C(C(=O)OCc2ccccc2)C(c2cccc3ccccc23)n2c(nc3ccccc32)N1 (configuration not stated)	inactive
CCC1(OC(=O)c2ccccc2SSCCOC(=O)CCCCC2SCC3NC(=O)NC32)C(=O)OCc2c1cc1n(c2=O)Cc2cc3ccccc3nc2-1 (configuration not stated)	inactive
COc1cc(CNC(=O)C[C@H](C)CCC=C(C)C)ccc1OCc1cn(-c2ccc(Br)cc2)nn1	inactive
O=C(N/N=C/c1c[nH]c2ccccc12)Nc1ccccc1Cl	inactive
NCCCCn1c(SCCc2c[nH]c3ccccc23)nnc1-c1ccc2ccccc2n1	active
O=C(NN1C(=O)/C(=C/C=C/c2ccc([N+](=O)[O-])o2)SC1=S)c1ccncc1	active
CNc1nc2ccccc2n2c(-c3ccc(O)c(O)c3)cnc12	inactive
Cc1nn(-c2ccccc2)c2nc(C)n(C(=O)N/N=C/c3ccccc3)c(=O)c12	inactive
CC(C)C[C@H](NC(=O)CNC(=O)C[C@H]1O[C@@H]2OC3(C)CC[C@H]4[C@H](C)CC[C@@H]([C@H]1C)[C@@]24O3)B(O)O	inactive
Cc1ccc2c(c1)nc(-c1ccccc1)n2CC(=O)N=Nc1c(O)[nH]c2ccc(Cl)cc12	active
CC[C@]12C=CCN3CC[C@]4(C(=C(C(=O)OC)C1)Nc1cc(OC)c([C@@H]5[C@H]6O[C@H]6[C@@]6(CC)CC(C(=O)OC)=C7Nc8cc(OC)ccc8[C@@]78CCN5[C@@H]68)cc14)[C@@H]32	inactive
COc1ccccc1NC(=O)N/N=C/c1c[nH]c2ccccc12	inactive
